tested on: A549 NSCLC; assay: NCI tumour cell line growth inhibition, 48 h
Examples of molecules with documented TGI follow.

Reference set (3 entries):
CCCCN(CC)CCCCCCCCCCN1CCCc2cc(OC)ccc21
20.9 µM
OCC1OC(n2cnc3c(SCc4ccccc4)ncnc32)C(O)C1O (centres undefined)
> 100 µM
NC(Cc1ccccc1)c1nn[nH]n1 (centres undefined)
> 100 µM

Could you now look at the following molecule, please?
[Q] Using the record for C=C(COC(C)=O)CC(/C=C(\C)CC/C=C(\C)CO)OC(C)=O (centres undefined) , report its TGI.
[A] > 100 µM

* * *

system: MOLT-4 leukemia; assay: NCI tumour cell line growth inhibition, 48 h
Attribute Measured: TGI

Reference set (5 entries):
O=C1C(=C([O-])c2ccccc2)C(=O)c2ccccc21.O=C1C(=C([O-])c2ccccc2)C(=O)c2ccccc21.[Co+2]
> 100 µM
COc1cc2c3c(n(CCCN4CCCNCC4)c(=O)c2cc1OC)-c1cc2c(cc1C3=O)OCO2
50 µM
COc1ncc(-c2ccc3nccc(C#CCN4CCN(S(C)(=O)=O)CC4)c3c2)cc1NS(=O)(=O)c1ccc(F)cc1F
2.29 µM
O=C(/C=C/c1nnc2n(Cc3ccccc3)c(=O)c3c4c(sc3n12)CCCC4)c1ccccc1
0.769 µM
O=C(/C=C/c1ccc(O)c(O)c1)NC(COC(=O)/C=C/c1ccc(O)c(O)c1)C(=O)O (stereo not drawn)
> 100 µM

[Q] Using the record for `Cc1cc2c(cc1C)[n+](=O)c(C(=O)CC(=O)C(=O)Nc1ccccc1C(C)C)c(C)n2[O-]` , report its TGI.
[A] > 100 µM

[Q] Try the compound CCCNCC(O)CNc1ccc(NCC(O)CNCCC)c2c1C(=O)c1ccccc1C2=O (stereo not drawn)
[A] 7.6 µM

[Q] Try the compound O=C(O)CCC1CCc2cccc(OCC(=O)O)c2C1=O (stereo not drawn)
[A] > 100 µM

[Q] Try the compound O=C1CC(C(OCc2ccccc2)C(OCc2ccccc2)C(OCc2ccccc2)C(COCc2ccccc2)OCc2ccccc2)CC(=O)N1 (stereo not drawn)
[A] > 100 µM

[Q] Try the compound `CN(C)c1ccc(/C=c2\sc3nnc(-c4cccnc4)n3c2=O)cc1`
[A] > 100 µM

[Q] Try the compound `CC(=O)Oc1c(Br)ccc2cc(C(Br)Br)c(C(=O)c3ccccc3)nc12`
[A] 46.2 µM

[Q] Try the compound `O=C(c1cccs1)c1nc2cc(Cl)ccc2[n+]([O-])c1C(F)(F)F`
[A] > 100 µM

[Q] Try the compound CSC1=C(C#N)C(=O)N(c2ccc(C)cc2)C(=O)C1C#N (stereo not drawn)
[A] > 100 µM

* * *

tested on: NCI-H23 lung; experiment: NCI tumour cell line growth inhibition, 48 h
Examples of compounds with documented TGI follow.

Reference set (3 entries):
CCOC(=O)c1cn(CC)c2ccc3ccsc3c2c1=O
> 100 µM
O=C(O)CCC1CCc2cccc(OCC(=O)O)c2C1=O (stereo not given)
> 100 µM
CSC1=C(C#N)C(=O)N(c2ccc(C)cc2)C(=O)C1C#N (stereo not given)
> 100 µM

[Q] Using the record for O=C1CC(C(OCc2ccccc2)C(OCc2ccccc2)C(OCc2ccccc2)C(COCc2ccccc2)OCc2ccccc2)CC(=O)N1 (stereo not given) , report its TGI.
[A] > 100 µM

[Q] Try the compound `NCCCNc1nc2ccc(Cl)cc2c2c(=O)c3cc(F)ccc3sc12`
[A] 21.2 µM

[Q] Try the compound O=C(Cc1ccccc1)N/N=C(/c1nc2ccc([N+](=O)[O-])cc2[nH]c1=O)C(O)c1ccccc1Cl (stereo not given)
[A] > 100 µM

[Q] Try the compound CCCNCC(O)CNc1ccc(NCC(O)CNCCC)c2c1C(=O)c1ccccc1C2=O (stereo not given)
[A] 12.2 µM
